experimental.system: T1, O16-bS
T1 chain: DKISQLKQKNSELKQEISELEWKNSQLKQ
test.details: two-hybrid library CCNG1;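 also: natural log of median RNA to DNA barcode read ratio; higher means stronger binding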
measure: interaction score

Examples from the recorded data:
Determine its reported interaction score: DKISQLKQEISELEQENSELEWENSQLEQ [O11-bS]
-0.701

Determine its reported interaction score: DKISQLKQKNSELKQEISELEWKNSQLKQ [O16-bS]
-1.23

(I) DEISQLEQKISELKQKNSELKWKNSQLKQ [O12-bS]
(II) DKNSQLKQENSELEQEISELEWEISQLEQ [O1-bS]
Determine, for I and II , which has the greater value of interaction score. Field: selected label. Fill in the label of the entry you choose.
I
(I: -1.04, II: -1.87)
